Consider the following compounds and their measured viscosity readings.
conditions: 348.15 K; 101.33 kPa; Liquid; Concentric cylinders viscometry
Numbers after ± are expanded uncertainties.

Please review the entries below; each comes with its answer.
Ask: Look at this compound and give its reported viscosity. `CCCCCCCCCCCCCC[P+](CCCCCC)(CCCCCC)CCCCCC.O=S(=O)([N-]S(=O)(=O)C(F)(F)F)C(F)(F)F`
Reply: 36.95 ± 0.34 mPa·s

Ask: // query: `CC(CC(C)(C)C)CP(=O)([O-])CC(C)CC(C)(C)C.CCCCCCCCCCCCCC[P+](CCCCCC)(CCCCCC)CCCCCC`
Reply: 126.77 ± 1.8 mPa·s

Further cases:
Ask: Look at this compound and give its reported viscosity. CCCCCCCCCCCCCC[P+](CCCCCC)(CCCCCC)CCCCCC.CS(=O)(=O)[O-] [trihexyltetradecylphosphonium methanesulfonate]
Reply: 83.37 ± 0.9 mPa·s
